Just for reference, patent US20240383852A1 is where these values come from.

- Test system: human Hep G2 cells (ATCC HB-8065)
- protocol-summary: Cytotoxicity in Hep G2 cells (CellTiter-Glo)
- Type: cell-based
- condition-parameters: Hep G2 cells, 100 μM test article, 24-hour exposure
Where a name gives a salt, the structure may show the parent alone.
Parameter: % Cell Viability. Scope: all listed entries.
Field format: number, assumed %, no unit text.

The examples below pair each entry with its known result.
# compound, readout-unit, % Cell Viability
measured = [
    ("COc1ccc([C@@H](C)NC(=O)c2cc(N3CCN(C)CC3)ccc2C)cc1-c1ccccc1 [Example 203]", "%", 0.9),
    ("Cc1ccc(N2CCN(C)CC2)cc1C(=O)N[C@H](C)c1cccc(C(=O)NCC(N)=O)c1 [Example 310, hydrochloride salt]", "%", 124.4),
]

Challenge: Quick check: % Cell Viability of Cc1ccc(N2CCC(N)CC2)cc1C(=O)N[C@H](C)c1cccc2ccccc12 [Example 16] ?
Response given: 1.1

Challenge: Form field: reported % Cell Viability of COc1ccc(Br)cc1[C@@H](C)NC(=O)c1cc(N2CCN(C)CC2)ccc1C [Example 195]
Response given: 41.5

Challenge: Which value of % Cell Viability has been reported for Cc1ccc(N2CCN(C)CC2)cc1C(=O)N[C@H](C)c1cccc(-c2cccc(C(=O)N(C)C)c2)c1 [Example 47] in the records?
Response given: 54.0

Challenge: Which % Cell Viability value is on record for COc1cc(-c2cn(C)nc2C)cc([C@@H](C)NC(=O)c2cc(N3CCN(CC4CC4)CC3)ccc2C)c1 [Example 255, hydrochloride salt] ?
Response given: 70.3

Challenge: So what's the measured % Cell Viability for this one? COc1cc(-c2cn(C)nc2C)cc([C@@H](C)NC(=O)c2cc(N3CCN(C)CC3)ccc2C)c1 [Example 233]
Response given: 88.9

----------
- target-desc: SARS-CoV-2 PLpro (Severe acute respiratory syndrome coronavirus 2)
- Construct: containing 60 nM papain-like protease
- protocol-summary: biochemical
- condition-parameters: 60 nM papain-like protease, 50 μM Z-RLRGG-AMC, pH 7.5, 37° C.; read-out: SARS-CoV-2 PLpro IC50
Counter-ions that a name gives are not always drawn.
# IC50 values compiled below

Challenge: Which IC50 value is on record for Cc1ccc(N2CCN(C)CC2)cc1C(=O)N[C@H](C)c1cccc(-c2ccc(=O)[nH]c2)c1 [Example 66] ?
Response given: < 2000 nM

Challenge: Looking for the measured IC50 of C[C@@H](NC(=O)c1cccc(-c2ccnc(N3CCOCC3)n2)c1)c1cccc2ccccc12 [Example 138] , can you help?
Response given: > 100000 nM

Challenge: Tell me the measured IC50 of C[C@@H](NC(=O)c1cncc(N2CCN(C)CC2)n1)c1cccc2ccccc12 [Example 320, Hydrochloride Salt] , please.
Response given: < 100000 nM

Challenge: Entry under review: Cc1ccc(N2CCN(C)CC2)cc1C(=O)N[C@H](C)c1cccc(-c2cccc(C(=O)N(C)CCN(C)C)c2)c1 [Example 86] . Reported IC50?
Response given: < 2000 nM

Challenge: What IC50 value was documented for this compound, COc1ccc([C@@H](C)NC(=O)c2cc(N3CCN(C)CC3)ccc2C)cc1OC [Example 23] ?
Response given: < 2000 nM

Challenge: Could you tell me which IC50 is on file for Cc1ccc(N2CCN(C)CC2)cc1C(=O)N[C@H](C)c1cccc(-c2cccc(N3CCN(CCC(=O)O)CC3)c2)c1 [Example 167] ?
Response given: < 2000 nM

Challenge: Fill in: IC50 of Cc1ccc(N2CCN(C)CC2)cc1C(=O)N[C@H](C)c1cccc(-c2ccc(N3CCN(CCC(=O)O)CC3)cc2)c1 [Example 165] is ___
Response given: < 2000 nM

----------
- Tested on: human Hep G2 cells (ATCC HB-8065)
- protocol-summary: Cytotoxicity in Hep G2 cells (CellTiter-Glo)
- Assay type: cell-based
- condition-parameters: Hep G2 cells, 100 μM test article, 24-hour exposure
metric-name: % Cell Viability (%)
# value in %; strip the unit string

# compound, metric-name, val
rows = [
    ("COc1ccc([C@@H](C)NC(=O)c2cc(N3C[C@@H]4C[C@H]3CN4)ccc2C)cc1OC [Example 18]", "% Cell Viability", 119.3),
    ("Cc1ccc(N2CCN(C)CC2)cc1C(=O)N[C@H](C)c1ccc(OC(F)(F)F)c(-c2cnn(C)c2)c1 [Example 222]", "% Cell Viability", 7.4),
]

Challenge: Fill in the blank: the reported % Cell Viability of Cc1ccc(N2CCN(C)CC2)cc1C(=O)N[C@H](C)c1cccc(-c2ccc(C3CCNCC3)cc2)c1 [Example 77] is ____.
Response given: 1.0

Challenge: Value lookup for % Cell Viability; key = Cc1ccc(N2CCN(C)CC2)cc1C(=O)N[C@H](C)c1cccc(C#CCO)c1 [Example 315]
Response given: 122.7

----------
- Test system: human Hep G2 cells (ATCC HB-8065)
- protocol-summary: Cytotoxicity in Hep G2 cells (CellTiter-Glo)
- Assay type: cell-based
- condition-parameters: Hep G2 cells, 100 μM test article, 24-hour exposure
We begin with a simple list: items and their reported % Cell Viability.
Write the answer as a number in %, unit excluded.

Solved entries (count: 3):
# compound, target-desc, readout-unit, % Cell Viability
records = [
    ("COc1ccc([C@@H](C)NC(=O)c2cc(N3CCNC4(CC4)C3)ccc2C)cc1-c1cnn(C)c1 [Example 241]", "human Hep G2 cells (ATCC HB-8065)", "%", 84.2),
    ("Cc1ccc(N2CCN(C)CC2)cc1C(=O)N[C@H](C)c1cccc(Br)c1 [Example 22]", "human Hep G2 cells (ATCC HB-8065)", "%", 65.5),
    ("Cc1ccc(N2CCN(C)CC2)cc1C(=O)N[C@H](C)c1cccc(-c2cc(C(=O)N(C)C)n(C)c2)c1 [Example 102]", "human Hep G2 cells (ATCC HB-8065)", "%", 75.9),
]

Let us move to another entry and its % Cell Viability.
Challenge: Tell me reported % Cell Viability for COCCNC(=O)c1cc(-c2cccc([C@@H](C)NC(=O)c3cc(N4CCN(C)CC4)ccc3C)c2)cs1 [Example 100] , tested with human Hep G2 cells (ATCC HB-8065).
Response given: 65.9

----------
- Tested on: human Hep G2 cells (ATCC HB-8065)
- protocol-summary: Cytotoxicity in Hep G2 cells (CellTiter-Glo)
- Format: cell-based
- condition-parameters: Hep G2 cells, 100 μM test article, 24-hour exposure
Structures can show the parent of a compound that is named as a salt.
metric-name: % Cell Viability (%)
Use % as the unit, but write only the number.

Would you please look over these solved cases?
# compound, % Cell Viability / %
rows = [
    ("Cc1ccc(N2CCN(C)CC2)cc1C(=O)N[C@H](C)c1cccc(-c2cccc(C(=O)N3CCOCC3)c2)c1 [Example 92]", 76.9),
    ("Cc1ccc(N2CCN(C)CC2)cc1C(=O)N[C@H](C)c1cccc(-c2cccc(C(=O)N3CCCCC3)c2)c1 [Example 91]", 27.1),
    ("Cc1ccc(N2CCN(C)CC2)cc1C(=O)N[C@H](C)c1cccc(-c2cccc(C(=O)NCCN)c2)c1 [Example 98]", 98.5),
    ("COc1cc(-c2cnn(C)c2)cc([C@@H](C)NC(=O)c2cc(N3CCNCC3)ccc2C)c1 [Example 235]", 90.6),
    ("COc1cc(-c2cnn(C)c2C)cc([C@@H](C)NC(=O)c2cc(N3CCN(C)CC3)ccc2C)c1 [Example 253, hydrochloride salt]", 89.3),
    ("Cc1ccc(N2C[C@H]3C[C@@H]2CN3C)cc1C(=O)N[C@H](C)c1cccc2ccccc12 [Example 121]", 75.1),
    ("Cc1ccc(N2CCN(C)C(C)C2)cc1C(=O)N[C@H](C)c1cccc2ccccc12 (stereo partly shown) [Example 126]", 62.8),
    ("COc1ccc([C@@H](C)NC(=O)c2cc(C3CCN(C)CC3)ccc2C)cc1Br [Example 299]", 76.2),
]

Challenge: I would be grateful if you could share the reported % Cell Viability for Cc1ccc(N2CCN(C)CC2)cc1C(=O)N[C@H](C)c1ccc(F)c(-c2ccccc2)c1 [Example 218] .
Response given: 1.5

Challenge: Which % Cell Viability value is on record for Cc1ccc(N2CCN(C)CC2)cc1C(=O)N[C@H](C)c1cccc(-c2nccs2)c1 [Example 65] ?
Response given: 77.6

Challenge: Item C[C@@H](NC(=O)c1cc(C2CCNC2)ccc1Cl)c1cccc2ccccc12 (stereo partly shown) [Example 147] has what recorded % Cell Viability?
Response given: 0.8

Challenge: Bench note: what % Cell Viability did COc1cc([C@@H](C)NC(=O)c2cc(N3C[C@H]4C[C@@H]3CN4C)ccc2C)ccc1OCC1CC1 [Example 297] show?
Response given: 61.1

Challenge: Sample COc1cc(-c2ccccc2)cc([C@@H](C)NC(=O)c2cc(N3CCN(C)CC3)ccc2C)c1 [Example 234] — what was its % Cell Viability?
Response given: 0.9

Challenge: Give the measured % Cell Viability of Cc1ccc(N2CCOCC2)cc1C(=O)N[C@H](C)c1cccc2ccccc12 [Example 116] .
Response given: 66.6

Challenge: # input compound: COc1ccc([C@@H](C)NC(=O)c2cc(N3CCN(C)CC3)ccc2C)cc1OCC1CC1 [Example 296] ; wanted: its % Cell Viability
Response given: 76.1

Challenge: I'd like to know its % Cell Viability. The compound in question is COc1cc(-c2cnn(C)c2)cc([C@@H](C)NC(=O)c2cc(N3CCNC4(CC4)C3)ccc2C)c1 [Example 264]
Response given: 68.5
